- System tested: Prolyl hydroxylase EGLN2 (Homo sapiens)
- Sequence (Q96KS0 whole entry, the tested form may be a part): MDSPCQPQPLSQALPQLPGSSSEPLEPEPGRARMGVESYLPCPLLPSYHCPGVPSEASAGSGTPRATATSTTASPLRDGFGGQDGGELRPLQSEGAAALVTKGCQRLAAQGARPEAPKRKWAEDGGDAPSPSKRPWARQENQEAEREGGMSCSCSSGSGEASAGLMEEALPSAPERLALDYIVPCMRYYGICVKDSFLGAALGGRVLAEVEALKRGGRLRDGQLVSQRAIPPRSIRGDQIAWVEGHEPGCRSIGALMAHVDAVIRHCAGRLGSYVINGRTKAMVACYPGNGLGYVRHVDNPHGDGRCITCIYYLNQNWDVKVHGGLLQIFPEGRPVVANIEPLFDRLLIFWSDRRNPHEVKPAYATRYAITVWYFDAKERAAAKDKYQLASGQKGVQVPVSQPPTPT
- Assay summary: Inhibitory activity against purified fusion of maltose binding with PHD1 as enzyme and […]
Observed property: pIC50
On this scale, pIC50 is minus log10 of a concentration expressed in M (mol/L).

// recorded pIC50 for O=C(O)CC1CC(=O)N(O)C1=O (racemic) : 3.00

The values you see were collected from ChEMBL document CHEMBL1136705.
